Target of assay: PKBα (Homo sapiens, UniProt P31749)
Sequence (P31749 118-480 limits assumed): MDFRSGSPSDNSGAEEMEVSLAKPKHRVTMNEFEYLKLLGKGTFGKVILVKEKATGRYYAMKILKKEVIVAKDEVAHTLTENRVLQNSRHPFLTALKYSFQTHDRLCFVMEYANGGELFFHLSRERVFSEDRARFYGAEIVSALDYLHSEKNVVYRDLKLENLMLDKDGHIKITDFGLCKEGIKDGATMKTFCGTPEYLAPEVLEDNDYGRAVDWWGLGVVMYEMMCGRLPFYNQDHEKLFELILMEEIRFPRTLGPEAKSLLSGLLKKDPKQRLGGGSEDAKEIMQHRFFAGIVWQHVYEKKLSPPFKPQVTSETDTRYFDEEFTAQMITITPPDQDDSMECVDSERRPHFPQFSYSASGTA
Protocol notes: PKB kinase assay (P33-labeled ATP, peptide substrate, filter plate)
Condition details: PKBα enzyme (full length or kinase domain with pleckstrin domain deleted)
pIC50: −log10 of the molar value.
// pIC50 lookup, one value per entry

Molecule	Target of assay	pIC50
N#Cc1nc(NC[C@@H](N)Cc2ccc(C(F)(F)F)cc2)sc1-c1ccc2c(c1)CC(=O)N2	PKBα (Homo sapiens, UniProt P31749)	5.00 to 6.00
N#Cc1ccc(-c2cnc(NC[C@@H](N)Cc3ccc(C(F)(F)F)cc3)s2)cc1F	PKBα (Homo sapiens, UniProt P31749)	6.00 to 7.30
N[C@H](CNc1ncc(-c2ccc3c(c2F)CC(=O)N3)s1)Cc1ccc(C(F)(F)F)cc1	PKBα (Homo sapiens, UniProt P31749)	> 7.30
N[C@H](CNc1ncc(-c2ccc3nnccc3c2)s1)Cc1ccc(C(F)(F)F)cc1	PKBα (Homo sapiens, UniProt P31749)	6.00 to 7.30
N[C@H](CNc1ncc(-c2ccc3c(c2)OCO3)s1)Cc1c[nH]c2ccccc12	PKBα (Homo sapiens, UniProt P31749)	5.00 to 6.00
C[C@@H](c1ccc(C(F)(F)F)cc1)[C@H](N)CNc1ncc(-c2ccc3c(c2)CC(=O)N3)s1	PKBα (Homo sapiens, UniProt P31749)	> 7.30
N[C@H](CNc1ncc(-c2ccc3cnccc3c2)s1)Cc1ccc(NC(=O)OCc2ccccc2)cc1	PKBα (Homo sapiens, UniProt P31749)	5.00 to 6.00
N[C@H](CNc1nc(C#CCO)c(-c2ccc3[nH]c(=O)oc3c2)s1)Cc1ccc(C(F)(F)F)cc1	PKBα (Homo sapiens, UniProt P31749)	> 7.30
NC(CNc1ncc(-c2ccc3[nH]c(=O)oc3c2)s1)Cc1ccc(C(F)(F)F)cc1F (stereo not shown)	PKBα (Homo sapiens, UniProt P31749)	> 7.30
N[C@H](CNc1ncc(-c2ccc3c(c2)CC(=O)N3)s1)Cc1ccc(Cl)cc1Cl	PKBα (Homo sapiens, UniProt P31749)	6.00 to 7.30
CC(=O)N[C@H](CNc1ncc(-c2ccc3c(c2)CC(=O)N3)s1)Cc1ccc(C(F)(F)F)cc1	PKBα (Homo sapiens, UniProt P31749)	5.00 to 6.00
Cn1c(=O)[nH]c2ccc(-c3sc(NC[C@@H](N)Cc4ccc(C(F)(F)F)cc4)nc3C#N)cc21	PKBα (Homo sapiens, UniProt P31749)	5.00 to 6.00
N[C@H](CNc1nc(C#CC2=CCCC2)c(-c2ccc3cnccc3c2)s1)Cc1ccc(C(F)(F)F)cc1	PKBα (Homo sapiens, UniProt P31749)	5.00 to 6.00
Nc1n[nH]c2ccc(-c3cnc(NC[C@@H](N)Cc4c[nH]c5ccccc45)s3)cc12	PKBα (Homo sapiens, UniProt P31749)	5.00 to 6.00
N[C@H](CNc1ncc(-c2ccc3c(c2)CC(=O)N3)s1)Cc1ccc(C(F)(F)F)cc1	PKBα (Homo sapiens, UniProt P31749)	> 7.30
COCC#Cc1nc(NC[C@@H](N)Cc2ccc(C(F)(F)F)cc2)sc1-c1ccc2cnccc2c1	PKBα (Homo sapiens, UniProt P31749)	6.00 to 7.30
